// data source = patent US20220289794A1

Assay: in vitro
Settings: human, fresh human red blood cells (washed), pH 7.4
Non-standard residues stand in square brackets, D forms with d. Residues, ends and D or L forms follow the SMILES beside them. 2Nal = N[C@@H](Cc1ccc2ccccc2c1)C(=O)O; d2Nal = N[C@H](Cc1ccc2ccccc2c1)C(=O)O

{"columns": ["compound", "unit.info", "HC50 at 0.5 h"],
 "data": [
  ["N=C(N)NCCC[C@@H]1NC(=O)[C@H](Cc2ccc3ccccc3c2)NC(=O)[C@H](Cc2ccc3ccccc3c2)NC(=O)[C@H](Cc2c[nH]c3ccccc23)NC(=O)[C@@H](CCCNC(=N)N)NC(=O)[C@H](CCCNC(=N)N)NC(=O)[C@H](CCCNC(=N)N)NC1=O [IFX-105, c[Arg-Arg-Arg-arg-Trp-NaI-NaI]] (cyclo([2Nal][2Nal]RRR[dR]W))", "µg/mL", 130],
  ["N=C(N)NCCC[C@H]1NC(=O)[C@@H](CCCNC(=N)N)NC(=O)[C@@H](CCCNC(=N)N)NC(=O)[C@@H](Cc2ccc3ccccc3c2)NC(=O)[C@@H](Cc2ccc3ccccc3c2)NC(=O)[C@@H](Cc2ccc3ccccc3c2)NC(=O)[C@@H](CCCNC(=N)N)NC1=O [IFX-081, c[arg-arg-arg-arg-naI-naI-naI]] (cyclo([dR][dR][dR][dR][d2Nal][d2Nal][d2Nal]))", "µg/mL", 200],
  ["N=C(N)NCCC[C@@H]1NC(=O)[C@H](CCCNC(=N)N)NC(=O)[C@H](CCCNC(=N)N)NC(=O)[C@H](Cc2ccc3ccccc3c2)NC(=O)[C@@H](Cc2ccc3ccccc3c2)NC(=O)[C@H](Cc2c[nH]c3ccccc23)NC(=O)[C@H](CCCNC(=N)N)NC1=O [IFX-103, c[Arg-Arg-Arg-Arg-Trp-naI-NaI]] (cyclo([2Nal]RRRRW[d2Nal]))", "µg/mL", 170]
]}

* * *

System: human red blood cells
Set-up: unit not given beside the values
Non-standard residues stand in square brackets, D forms with d. Residues, ends and D or L forms follow the SMILES beside them. Dip = N[C@H](C(=O)O)C(c1ccccc1)c1ccccc1; 2Nal = N[C@@H](Cc1ccc2ccccc2c1)C(=O)O

{"columns": ["compound", "experimental.system", "HC50"],
 "data": [
  ["N=C(N)NCCC[C@@H]1NC(=O)[C@@H](CCCNC(=N)N)NC(=O)[C@H](Cc2c[nH]c3ccccc23)NC(=O)[C@@H](Cc2c[nH]c3ccccc23)NC(=O)[C@H](Cc2c[nH]c3ccccc23)NC(=O)[C@@H](Cc2c[nH]c3ccccc23)NC(=O)[C@H](CCCNC(=N)N)NC(=O)[C@@H](CCCNC(=N)N)NC1=O [IFX-034, c[arg-Arg-arg-Arg-trp-Trp-trp-Trp]] (cyclo(R[dR]R[dW]W[dW]W[dR]))", "human red blood cells", 320],
  ["N=C(N)NCCC[C@@H]1NC(=O)[C@H](CCCNC(=N)N)NC(=O)[C@H](Cc2c[nH]c3ccccc23)NC(=O)[C@H](Cc2ccc3ccccc3c2)NC(=O)[C@H](Cc2ccc3ccccc3c2)NC(=O)[C@H](CCCNC(=N)N)NC1=O [IFX-025, c[Arg-Arg-Arg-NaI-NaI-Trp]] (cyclo(RRR[2Nal][2Nal]W))", "human red blood cells", 190],
  ["N=C(N)NCCC[C@@H]1NC(=O)[C@H](CCCNC(=N)N)NC(=O)[C@H](CCCNC(=N)N)NC(=O)[C@H](C(c2ccccc2)c2ccccc2)NC(=O)[C@H](C(c2ccccc2)c2ccccc2)NC(=O)[C@H](Cc2c[nH]c3ccccc23)NC(=O)[C@H](CCCNC(=N)N)NC1=O [IFX-026, c[Arg-Arg-Arg-Arg-Trp-Dip-Dip]] (cyclo([Dip][Dip]RRRRW))", "human red blood cells", 240]
]}

* * *

Test system: Methicillin-resistant Staphylococcus aureus MRSA (ATCC BAA-1556)
Details: ATCC BAA-1556
Residues, ends and D or L forms follow the SMILES beside them.
Item-by-item account of MRSA (ATCC BAA-1556) MIC

{"columns": ["compound", "experimental.system", "unit.info", "MRSA (ATCC BAA-1556) MIC"],
 "data": [
  ["N=C(N)NCCC[C@@H]1NC(=O)[C@H](CCCNC(=N)N)NC(=O)[C@H](CCCNC(=N)N)NC(=O)[C@H](Cc2c[nH]c3ccccc23)NC(=O)[C@H](Cc2c[nH]c3ccccc23)NC(=O)[C@H](Cc2c[nH]c3ccccc23)NC(=O)[C@H](Cc2c[nH]c3ccccc23)NC(=O)[C@H](CCCNC(=N)N)NC(=O)[C@H](CCCNC(=N)N)NC1=O [IFX-301, [R5W4]]", "Methicillin-resistant Staphylococcus aureus MRSA (ATCC BAA-1556)", "µg/mL", 4],
  ["N=C(N)NCCC[C@@H]1NC(=O)[C@H](CCCNC(=N)N)NC(=O)[C@H](CCCNC(=N)N)NC(=O)[C@H](CCCCN)NC(=O)[C@H](Cc2c[nH]c3ccccc23)NC(=O)[C@H](Cc2c[nH]c3ccccc23)NC(=O)[C@H](Cc2c[nH]c3ccccc23)NC(=O)[C@H](Cc2c[nH]c3ccccc23)NC(=O)[C@H](CCCNC(=N)N)NC(=O)[C@H](CCCNC(=N)N)NC1=O [[R4W5K] (IFX-315)] (cyclo(RRRRRWWWWK))", "Methicillin-resistant Staphylococcus aureus MRSA (ATCC BAA-1556)", "µg/mL", 4],
  ["N=C(N)NCCC[C@@H]1NC(=O)[C@H](CCCNC(=N)N)NC(=O)[C@H](CCCNC(=N)N)NC(=O)[C@H](CCCCN)NC(=O)[C@H](Cc2c[nH]c3ccccc23)NC(=O)[C@H](Cc2c[nH]c3ccccc23)NC(=O)[C@H](Cc2c[nH]c3ccccc23)NC(=O)[C@H](Cc2c[nH]c3ccccc23)NC(=O)[C@H](CCCNC(=N)N)NC(=O)[C@H](CCCNC(=N)N)NC1=O [IFX-315, [R5W4K]] (cyclo(RRRRRWWWWK))", "Methicillin-resistant Staphylococcus aureus MRSA (ATCC BAA-1556)", "µg/mL", 4]
]}

* * *

System: human red blood cells
Set-up: unit not given beside the values
Non-standard residues stand in square brackets, D forms with d. Residues, ends and D or L forms follow the SMILES beside them. Dip = N[C@H](C(=O)O)C(c1ccccc1)c1ccccc1; 2Nal = N[C@@H](Cc1ccc2ccccc2c1)C(=O)O
Item-by-item account of HC50

{"columns": ["molecule", "HC50"],
 "data": [
  ["N=C(N)NCCC[C@H](NC(=O)[C@H](CCCNC(=N)N)NC(=O)[C@@H](N)CCCNC(=N)N)C(=O)N[C@H](C(=O)N[C@@H](Cc1c[nH]c2ccccc12)C(=O)N[C@H](C(=O)O)C(c1ccccc1)c1ccccc1)C(c1ccccc1)c1ccccc1 [IFX-021-1, NH2-R-R-R-Dip-Trp-Dip-OH] (H-RRR[Dip]W[Dip]-OH)", 325],
  ["N=C(N)NCCC[C@@H]1NC(=O)[C@H](CCCNC(=N)N)NC(=O)[C@H](CCCNC(=N)N)NC(=O)[C@H](Cc2ccc3ccccc3c2)NC(=O)[C@H](Cc2ccc3ccccc3c2)NC(=O)[C@H](Cc2ccc3ccccc3c2)NC(=O)[C@H](CCCNC(=N)N)NC1=O [IFX-009, c[Arg-Arg-Arg-Arg-NaI-NaI-NaI]] (cyclo(RRRR[2Nal][2Nal][2Nal]))", 205],
  ["N=C(N)NCCC[C@H](NC(=O)[C@@H](NC(=O)[C@@H](NC(=O)[C@H](CCCNC(=N)N)NC(=O)[C@H](CCCNC(=N)N)NC(=O)[C@@H](NC(=O)[C@@H](N)CCCNC(=N)N)C(c1ccccc1)c1ccccc1)C(c1ccccc1)c1ccccc1)C(c1ccccc1)c1ccccc1)C(=O)O [IFX-016-1, NH2-Arg-Dip-Arg-Arg-Dip-Dip-Arg-OH] (H-R[Dip]RR[Dip][Dip]R-OH)", 320],
  ["N=C(N)NCCC[C@@H]1NC(=O)[C@H](CCCNC(=N)N)NC(=O)[C@H](CCCNC(=N)N)NC(=O)[C@H](C(c2ccccc2)c2ccccc2)NC(=O)[C@H](C(c2ccccc2)c2ccccc2)NC(=O)[C@H](CCCNC(=N)N)NC1=O [IFX-010, c[Arg-Arg-Arg-Arg-Dip-Dip]] (cyclo([Dip][Dip]RRRR))", 270],
  ["N=C(N)NCCC[C@@H]1NC(=O)[C@H](CCCNC(=N)N)NC(=O)[C@H](CCCNC(=N)N)NC(=O)[C@H](Cc2ccc3ccccc3c2)NC(=O)[C@H](Cc2ccc3ccccc3c2)NC(=O)[C@H](Cc2c[nH]c3ccccc23)NC(=O)[C@H](CCCNC(=N)N)NC1=O [IFX-029, c[Arg-Arg-Arg-Arg-Trp-NaI-NaI]] (cyclo(RRRRW[2Nal][2Nal]))", 200],
  ["N=C(N)NCCC[C@@H]1NC(=O)[C@H](CCCNC(=N)N)NC(=O)[C@H](C(c2ccccc2)c2ccccc2)NC(=O)[C@H](C(c2ccccc2)c2ccccc2)NC(=O)[C@H](CCCNC(=N)N)NC(=O)[C@H](CCCNC(=N)N)NC(=O)[C@H](C(c2ccccc2)c2ccccc2)NC1=O [IFX-017, c[Arg-Arg-Dip-Dip-Arg-Arg-Dip]] (cyclo(R[Dip]RR[Dip][Dip]R))", 290]
]}
